The origin of these recorded values is PubChem BioAssay AID623911.

TARGET OR TEST SYSTEM: G protein-activated inward rectifier potassium channel 2 (Homo sapiens) + G protein-activated inward rectifier potassium channel 1 (Homo sapiens) (UniProt P48051+P48549)
Sequence (P48051 whole entry, looked up): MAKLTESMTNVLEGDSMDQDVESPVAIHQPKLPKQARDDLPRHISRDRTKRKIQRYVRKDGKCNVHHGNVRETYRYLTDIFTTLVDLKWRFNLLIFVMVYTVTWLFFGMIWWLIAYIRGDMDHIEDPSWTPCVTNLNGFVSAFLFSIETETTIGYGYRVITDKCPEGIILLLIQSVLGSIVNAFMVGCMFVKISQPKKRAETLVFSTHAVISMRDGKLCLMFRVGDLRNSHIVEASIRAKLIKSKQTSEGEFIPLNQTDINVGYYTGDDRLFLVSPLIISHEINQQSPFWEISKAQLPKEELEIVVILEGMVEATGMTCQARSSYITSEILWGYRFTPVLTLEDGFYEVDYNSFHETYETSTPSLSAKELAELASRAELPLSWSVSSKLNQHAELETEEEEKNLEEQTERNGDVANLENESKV
Sequence (P48549 whole entry, looked up): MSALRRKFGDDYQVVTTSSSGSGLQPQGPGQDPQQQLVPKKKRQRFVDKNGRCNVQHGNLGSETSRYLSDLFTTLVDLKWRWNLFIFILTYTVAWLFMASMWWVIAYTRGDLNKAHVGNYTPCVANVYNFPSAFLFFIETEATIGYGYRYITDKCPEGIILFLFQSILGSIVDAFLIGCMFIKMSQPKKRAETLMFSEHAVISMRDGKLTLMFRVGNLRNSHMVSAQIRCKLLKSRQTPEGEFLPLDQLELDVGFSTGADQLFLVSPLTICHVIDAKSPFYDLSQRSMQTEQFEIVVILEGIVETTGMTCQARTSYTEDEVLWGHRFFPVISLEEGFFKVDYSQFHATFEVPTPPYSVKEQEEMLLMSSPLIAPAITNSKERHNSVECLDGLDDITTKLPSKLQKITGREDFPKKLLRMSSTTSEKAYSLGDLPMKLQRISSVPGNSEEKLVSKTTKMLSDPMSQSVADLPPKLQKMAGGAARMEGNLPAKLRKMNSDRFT
EXPERIMENT SUMMARY: GIRK1/2 thallium flux modulators, retest, confirmation, cell-based, HEK293 rmGlu8/hGIRK1/2, FluoZin-2 (AID 623911)
PROTOCOL CONDITIONS: HEK293 rmGlu8/hGIRK1/2, thallium flux FluoZin-2; actives lie on both sides; glutamate co-added at its EC20 level
The campaign covered roughly 2,100 compounds. About 770 (37%) were called active.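 Rule for the calls: active = by-eye trace score of 1 for enhancers or -1 for inhibitors, so actives lie on both sides (some results past the limit were not filed as active); inactive = score 0, or 3 fluorescent, or 4 baseline rise.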 This is one part of the list.
The reply should name one outcome from 1 (active), 0 (inactive)

Returns: the outcome recorded for COc1ccccc1C(c1nnnn1CCc1ccccc1)N1CCCCCC1 (stereo not drawn) in this assay.
1

Returns: the outcome recorded for COc1ccc(Cn2nnnc2C(c2ccccc2Cl)N2CCN(C3CCCC3)CC2)cc1 (stereo not drawn) in this assay.
1

Returns: the outcome recorded for Cc1cccc(C)c1NC1=NC(=S)N(c2ccc(N(C)C)cc2)C1(C)C in this assay.
0

Returns: the outcome recorded for Cc1ccc2c(c1)N(CC(=O)N(Cc1ccccn1)Cc1ccco1)C(=O)C(C(C)C)O2 (stereo not drawn) in this assay.
0

Returns: the outcome recorded for C=CCN1CCN(C(c2ccc(Cl)cc2)c2nnnn2CCc2ccc(OC)c(OC)c2)CC1 (stereo not drawn) in this assay.
1

Returns: the outcome recorded for CCC1Oc2ccc(C)cc2N(CC(=O)N(Cc2ccc(C)o2)C2CCCC2)C1=O (stereo not drawn) in this assay.
1

Returns: the outcome recorded for CCOC(=O)c1ccccc1NC(=O)CSc1nnc(COc2ccccc2)n1CC in this assay.
0

Returns: the outcome recorded for CCN(CC)CCn1c(=S)[nH]c2cc(Cl)ccc2c1=O in this assay.
0

Next:
Returns: the outcome recorded for COc1cc(/C=C(\C#N)C(=O)Nc2cccnc2)ccc1OC(C)C in this assay.
0

Returns: the outcome recorded for CCc1ccc(NCc2cc3c(C)nn(-c4ccccc4)c3[nH]c2=O)cc1 in this assay.
0

###

Assign manual score to each entry below.
TARGET OR TEST SYSTEM: G protein-activated inward rectifier potassium channel 2 (Homo sapiens) + G protein-activated inward rectifier potassium channel 1 (Homo sapiens) (UniProt P48051+P48549)
EXPERIMENT SUMMARY: GIRK1/2 thallium flux modulators, retest, confirmation, cell-based, HEK293 rmGlu8/hGIRK1/2, FluoZin-2 (AID 623911)
PROTOCOL CONDITIONS: HEK293 rmGlu8/hGIRK1/2, thallium flux FluoZin-2; actives lie on both sides; glutamate co-added at its EC20 level
Out of some 2,100 compounds screened, about 770 (37%) were called active. The list shows a part of the results.
Answers are plain numbers.

Recorded results for 4 compounds are shown here.
Please look at this compound and report its manual score: N#CCN1C(=S)N=C(Nc2cccc(Cl)c2)C12CCCCC2
0.5

Please look at this compound and report its manual score: Cc1cccc(NC(=O)CN(c2ccc(C(C)C)cc2)S(=O)(=O)c2c(C)nn(C)c2C)n1
-0.5

Please look at this compound and report its manual score: CSc1cccc(NC(=O)CN(c2ccc(C)cc2C)S(C)(=O)=O)c1
1

Please look at this compound and report its manual score: CC(=O)c1cccc(NC(=O)CCOc2ccccc2)c1
0

Provide manual score for all items below, preserving their order.
1. COc1ccc(NC2=NC(=S)N(c3ccccc3C)C23CCCCC3)cc1
2. COc1cccc(N(CC(=O)NCc2cccnc2)S(C)(=O)=O)c1

1: 1; 2: 0

###

TARGET OR TEST SYSTEM: G protein-activated inward rectifier potassium channel 2 (Homo sapiens) + G protein-activated inward rectifier potassium channel 1 (Homo sapiens) (UniProt P48051+P48549)
EXPERIMENT SUMMARY: GIRK1/2 thallium flux modulators, retest, confirmation, cell-based, HEK293 rmGlu8/hGIRK1/2, FluoZin-2 (AID 623911)
PROTOCOL CONDITIONS: HEK293 rmGlu8/hGIRK1/2, thallium flux FluoZin-2; actives lie on both sides; glutamate co-added at its EC20 level
Among all 2,100 compounds or so, about 770 (37%) were called active. This is one part of the list.
Binary call on manual score with cut-off 0: strictly below means true, and equality or higher means false.

Use these answered entries as a reference point.
manual score strictly < 0 for this compound? Cc1onc(-c2c(F)cccc2Cl)c1C(=O)OCn1nnc2ccccc2c1=O
true

manual score strictly < 0 for this compound? CN1C=CC2=C(C#N)C(N)C(C#N)(C#N)[C@H](c3ccccc3)[C@H]2C1 (stereo not given in full)
false

manual score strictly < 0 for this compound? Cc1nc(SC2CCOC2=O)c2c(C)c(C)sc2n1 (stereo not given)
false

manual score strictly < 0 for this compound? CCOC(=O)C(CC)Sc1nnc(COc2ccc(C)cc2)n1-c1ccccc1 (stereo not given)
true

manual score strictly < 0 for this compound? CCCn1c(=O)c2ccccc2n2c(SCCOc3ccccc3F)nnc12
true

Next:
manual score strictly < 0 for this compound? CCCc1ccc(C(=O)N2CCN(c3ccccc3OCC)CC2)cc1
true

manual score strictly < 0 for this compound? CC(Sc1nnnn1C)C(=O)Nc1ccc(Oc2ccccc2)cc1 (stereo not given)
false

manual score strictly < 0 for this compound? N#Cc1nc(Cc2ccccc2)oc1NCCc1ccccc1
true

manual score strictly < 0 for this compound? CCCn1c(=O)c2ccccc2n2c(SCC(=O)N3CCc4ccccc4C3)nnc12
true

###

TARGET OR TEST SYSTEM: G protein-activated inward rectifier potassium channel 2 (Homo sapiens) + G protein-activated inward rectifier potassium channel 1 (Homo sapiens) (UniProt P48051+P48549)
EXPERIMENT SUMMARY: GIRK1/2 thallium flux modulators, retest, confirmation, cell-based, HEK293 rmGlu8/hGIRK1/2, FluoZin-2 (AID 623911)
PROTOCOL CONDITIONS: HEK293 rmGlu8/hGIRK1/2, thallium flux FluoZin-2; actives lie on both sides; glutamate co-added at its EC20 level
About 770 (37%) of roughly 2,100 compounds were called active. This is one part of the list.
TEST READOUT: manual score

Recorded results for 4 compounds are shown here.
Please look at this compound and report its manual score: CC(C)N(C(=O)CN(C#N)c1nc(N(C)C)nc(N(C)C)n1)c1ccccc1
0 (inactive)

Please look at this compound and report its manual score: CCC1c2ccc(C)n2CCN1C(=O)Nc1ccccc1C(=O)OC (stereo unspecified)
0 (inactive)

Please look at this compound and report its manual score: CC(C)CC(NS(=O)(=O)c1ccc2c(c1)oc(=O)n2C)C(=O)NC1CCCc2ccccc21 (stereo unspecified)
0 (inactive)

Please look at this compound and report its manual score: S=c1nc(C2CC2)[nH]c2ccccc12
1 (active)

Provide manual score for all items below, preserving their order.
1. O=c1c2ccccc2[nH]c(=S)n1C1CCCCC1
2. CCCCCCCC1CC(CSC(=N)N)OC1=O (stereo unspecified)

1: 0 (inactive); 2: -1 (active)

###

TARGET OR TEST SYSTEM: G protein-activated inward rectifier potassium channel 2 (Homo sapiens) + G protein-activated inward rectifier potassium channel 1 (Homo sapiens) (UniProt P48051+P48549)
EXPERIMENT SUMMARY: GIRK1/2 thallium flux modulators, retest, confirmation, cell-based, HEK293 rmGlu8/hGIRK1/2, FluoZin-2 (AID 623911)
PROTOCOL CONDITIONS: HEK293 rmGlu8/hGIRK1/2, thallium flux FluoZin-2; actives lie on both sides; glutamate co-added at its EC20 level
About 770 (37%) of roughly 2,100 compounds were called active.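 How the source made its calls: active means by-eye trace score of 1 for enhancers or -1 for inhibitors, so actives lie on both sides (some results past the limit were not filed as active); inactive means score 0, or 3 fluorescent, or 4 baseline rise.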 Some of the results follow.
The reply should name one outcome from active, inactive

Use these answered entries as a reference point.
Returns: the outcome recorded for CCCCn1c(SCC(=O)NCc2ccco2)nc2ccccc2c1=O in this assay.
inactive

Returns: the outcome recorded for CCCCn1c(NC(=O)c2ccccc2Cl)c(C#N)c2nc3ccccc3nc21 in this assay.
inactive

Returns: the outcome recorded for CCCCOc1ccccc1C1C(C(=O)OC)=C(C)N(C)C(C)=C1C(=O)OC in this assay.
active

Next:
Returns: the outcome recorded for Cc1ccc(N(C(=O)CCC(=O)Nc2cc(C)on2)C(C(=O)NC2CCCC2)c2cccs2)cc1 (stereo not drawn) in this assay.
active

Returns: the outcome recorded for Cn1c(NCc2cccc(Br)c2)nc2ccccc21 in this assay.
active

Returns: the outcome recorded for CCCn1c(NCc2ccc(N(C)C)cc2)nc2ccccc21 in this assay.
active

###

TARGET OR TEST SYSTEM: G protein-activated inward rectifier potassium channel 2 (Homo sapiens) + G protein-activated inward rectifier potassium channel 1 (Homo sapiens) (UniProt P48051+P48549)
EXPERIMENT SUMMARY: GIRK1/2 thallium flux modulators, retest, confirmation, cell-based, HEK293 rmGlu8/hGIRK1/2, FluoZin-2 (AID 623911)
PROTOCOL CONDITIONS: HEK293 rmGlu8/hGIRK1/2, thallium flux FluoZin-2; actives lie on both sides; glutamate co-added at its EC20 level
Hit rate of the full screen: of about 2,100 compounds, about 770 (37%) were called active. The list shows a part of the results.
TEST READOUT: manual score
Give bare numbers.

Please look at this molecule and report its manual score: Cc1cc(C)c2nc(SCC(=O)NCCC3=CCCCC3)cc(C)c2c1
1

Please look at this molecule and report its manual score: Cc1oncc1C(=S)Nc1ccccc1
0

Please look at this molecule and report its manual score: O=C1CC(c2ccco2)Sc2nc3ccccc3n21 (configuration not stated)
0

Please look at this molecule and report its manual score: Cc1cc(C)c2nc(SC(C)C(=O)NCC(=O)Nc3ccc(F)c(F)c3F)cc(C)c2c1 (configuration not stated)
0

Provide manual score for all items below, preserving their order.
1. CSc1nc(Sc2ccccc2)c2ccccc2n1
2. S=C(Nc1ccc(Cl)cc1)c1nc2ccccc2[nH]1
3. COc1ccc(OC)c(-c2c3cc(O)c(=O)cc-3oc3cc(O)c(O)cc23)c1
4. O=C1CC(C(F)(F)C(F)(F)C(F)(F)F)=Nc2ccccc2N1
5. N#C/C(=C/c1ccc(N2CCOCC2)o1)c1nc2ccccc2[nH]1
6. Clc1ccccc1-c1nn2c(COc3ccccc3)nnc2s1

[0, 1, 0, 0, 3, 0]

Provide manual score for all items below, preserving their order.
1. CC(C)N=c1scc(-c2cccs2)n1/N=C/c1ccc(O)c(O)c1O
2. Cc1ccccc1/C=c1\s/c(=C\C(=O)C(C)(C)C)[nH]c1=O

1: 0; 2: 0
